Biological target: Cytochrome P450 3A4 (Homo sapiens) (UniProt P08684)
Sequence (P08684 whole entry, looked up): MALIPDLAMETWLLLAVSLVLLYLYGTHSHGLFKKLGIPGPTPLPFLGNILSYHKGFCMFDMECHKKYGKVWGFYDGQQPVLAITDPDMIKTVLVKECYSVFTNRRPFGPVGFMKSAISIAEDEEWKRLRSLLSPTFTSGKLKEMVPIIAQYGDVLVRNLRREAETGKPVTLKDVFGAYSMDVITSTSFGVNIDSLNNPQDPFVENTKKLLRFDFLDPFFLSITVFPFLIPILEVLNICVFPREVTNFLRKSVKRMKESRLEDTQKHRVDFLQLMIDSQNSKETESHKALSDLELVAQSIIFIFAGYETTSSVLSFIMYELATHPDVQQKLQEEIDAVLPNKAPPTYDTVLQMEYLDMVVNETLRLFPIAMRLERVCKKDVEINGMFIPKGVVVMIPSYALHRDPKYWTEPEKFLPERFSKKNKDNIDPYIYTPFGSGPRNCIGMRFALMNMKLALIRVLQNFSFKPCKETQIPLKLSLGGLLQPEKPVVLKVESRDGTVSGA
Assay: Cytochrome panel assay with activity outcomes
Details: recombinant CYP, pro-luciferin dealkylation, luminescence, p450-cyp3a4; series mostly up to 57.1 µM
Among all 16,000 compounds or so, about 5,100 (32%) were called active. Inconclusive results (about 25%) are left out. The call rests on the fitted dose curve; in most records, active means well fitted curve in the direction sought with a large enough effect; inconclusive means small, poorly fitted or top-dose-only effect, or effect the other way; inactive means no such curve, though single readings can be large or run the other way. Some of the results follow.
Labels: active, inactive

>  <compound>
CC(C)N(C(=O)CSc1nc2ccccc2n1-c1ccccc1)C(C)C

>  <class>
active

$$$$
>  <compound>
Nc1[nH]n2c(=O)c3c(nc2c1N=Nc1ccccc1)CCCC3

>  <class>
active

$$$$
>  <compound>
FC(F)(F)c1ccccc1-c1ccc2ncnc(NC3CC3)c2c1

>  <class>
active

$$$$
>  <compound>
O=C(O)CN(CCN(CC(=O)O)CC(=O)O)CCN(CC(=O)O)CC(=O)O

>  <class>
inactive

$$$$
>  <compound>
CC(=O)Nc1ccc([N+](=O)[O-])cn1

>  <class>
inactive

$$$$
>  <compound>
COC(=O)C(C)(C(=O)OC)c1ccc([N+](=O)[O-])cn1

>  <class>
inactive

$$$$
>  <compound>
C/C(=N\Nc1ccc([N+](=O)[O-])cc1)c1cccc(N)c1

>  <class>
active

$$$$
>  <compound>
O=c1c2c(nc3c(-c4ccccc4)c[nH]n13)CCC2

>  <class>
inactive

$$$$
>  <compound>
CN(Cc1ccco1)c1cc(-c2cccnc2)ncn1

>  <class>
active

$$$$
>  <compound>
O=C(NCc1ccco1)C(c1ccccc1)N(C(=O)Cc1cccs1)c1ccccc1F (configuration not stated)

>  <class>
active

$$$$
>  <compound>
N#Cc1ccccc1-c1ccc2ncnc(NC3CC3)c2c1

>  <class>
active

$$$$
>  <compound>
Clc1ccccc1-c1ccc2ncnc(NC3CCNCC3)c2c1

>  <class>
inactive

$$$$
>  <compound>
COC(=O)C(NC(=O)c1ccc(F)cc1)(Nc1ncc(S(=O)(=O)c2ccc([N+](=O)[O-])cc2)s1)C(F)(F)F (configuration not stated)

>  <class>
active

$$$$
>  <compound>
CC(C)(C)n1nnnc1C(c1cccnc1)N(Cc1ccccc1)Cc1ccco1 (configuration not stated)

>  <class>
active

$$$$
>  <compound>
O=C1[C@H]2[C@H]3[C@H](O)[C@H](O)C/C(=N/OCc4ccccc4)[C@H]3CC[C@@H]2C(=O)N1Cc1ccc2c(c1)OCO2

>  <class>
active

$$$$
>  <compound>
Cc1ccc(C(=O)c2ccc(CC(=O)O)n2C)cc1

>  <class>
inactive

$$$$
>  <compound>
CN1CCN(c2ccnc(-c3cccc(NS(C)(=O)=O)c3)n2)CC1

>  <class>
active

$$$$
>  <compound>
CC(C)n1c(N2CCN(C(=O)Nc3ccccc3)CC2)nc2ccccc21

>  <class>
inactive

$$$$
>  <compound>
Cc1ccc(C(C(=O)NCc2ccco2)N(C(=O)CNC(=O)c2cccs2)c2ccc(C)cc2C)cc1 (configuration not stated)

>  <class>
active

$$$$
>  <compound>
O=C1CCCC2=C1C(c1ccc(Cl)cc1)C1C(=O)c3ccccc3C1=N2 (configuration not stated)

>  <class>
active

$$$$
>  <compound>
CN(C)CC/C=C1\c2ccccc2CSc2ccccc21

>  <class>
inactive

$$$$
>  <compound>
CCOc1cc(-c2noc(N)c2C#N)cc(OCC)c1OCC

>  <class>
active

$$$$
>  <compound>
Cc1ccc(-c2[nH]n3c(=O)c4c(nc3c2C)CCCC4)cc1

>  <class>
active

$$$$
>  <compound>
CN(Cc1ccco1)c1cc(-c2cccc(C#N)c2)ncn1

>  <class>
inactive

$$$$
>  <compound>
FC(F)(F)c1ccccc1-c1ccc2ncnc(NC3CCNCC3)c2c1

>  <class>
inactive

$$$$
>  <compound>
CC(=O)Nc1ccc(Nc2ncc([N+](=O)[O-])c(Nc3ccc(NC(C)=O)cc3)n2)cc1

>  <class>
active

$$$$
>  <compound>
Cc1cc(C)cc(-n2c(O)c(C=NC3CCS(=O)(=O)C3)c3ccccc3c2=O)c1 (configuration not stated)

>  <class>
active

$$$$
>  <compound>
Cc1ccc(C2C(C(=O)c3ccco3)=C(O)C(=O)N2c2nnc(C)s2)cc1 (configuration not stated)

>  <class>
inactive

$$$$
>  <compound>
COc1ccccc1-c1cc(Nc2ccn[nH]2)ncn1

>  <class>
active

$$$$
>  <compound>
CC1CCN(C(=O)Nc2ccc3nsnc3c2)CC1

>  <class>
inactive

$$$$
>  <compound>
CCN1C(=O)[C@H]2[C@H]3[C@H](O)[C@H](O)C/C(=N/O[C@@H](C)c4cc(-c5c(C)cc(C)cc5C)no4)[C@@H]3CC[C@@H]2C1=O

>  <class>
active

$$$$
>  <compound>
CN1CCN(c2ccnc(-c3ccoc3)n2)CC1

>  <class>
inactive

$$$$
>  <compound>
CCOC(=O)N/N=C/c1ccc(F)cc1

>  <class>
inactive

$$$$
>  <compound>
COc1cccc(-c2cc(N(C)Cc3ccco3)ncn2)c1

>  <class>
active

$$$$
>  <compound>
COC(=O)CCSc1cc([N+](=O)[O-])cc2c1c(C1OCCS1)nn2-c1ccccc1 (configuration not stated)

>  <class>
active

$$$$
>  <compound>
CN1CCC(=C2c3ccccc3Sc3ccccc32)CC1

>  <class>
inactive

$$$$
>  <compound>
CC(=O)OC[C@@H]1O[C@@H](O/N=C2/C[C@@H](O)[C@@H](O)[C@@H]3[C@@H]4C(=O)N(Cc5ccc6c(c5)OCO6)C(=O)[C@H]4CC[C@H]23)[C@H](OC(C)=O)[C@H](OC(C)=O)[C@@H]1OC(C)=O

>  <class>
active

$$$$

----------
Target: Cytochrome P450 3A4 (Homo sapiens) (UniProt P08684)
Assay: Cytochrome panel assay with activity outcomes; on activity, negative = inhibition: on the % scale 0 is the no-effect control and ±100 the full control effect
Conditions: recombinant CYP, pro-luciferin dealkylation, luminescence, p450-cyp3a4; series mostly up to 57.1 µM
Procedure: The P450 gene superfamily is involved in the metabolism and clearance of xenobiotics. This assay used various human CYP P450 isozymes to measure the dealkylation of various pro-luciferin substrates to luciferin. The luciferin is then measured by luminescence after the addition of a luciferase detection reagent. […] Inhibitors and some substrates limit the production of luciferin, and decrease measured luminescence. […] 8, Detection, 1 sec, ViewLux luminescent read […]
Among all 16,000 compounds or so, about 5,100 (32%) were called active. Inconclusive results (about 25%) are left out. This is one part of the list.
measured_endpoint: activity, negative = inhibition

>  <compound>
Cc1cc(C(C)(C)C)cc(CNC2CCCCC2)c1O

>  <measured_endpoint>
activity, negative = inhibition

>  <measured_result>
-20.7% [at 11.4 µM] (inactive)

$$$$
>  <compound>
N=C(N)SCc1cccc(-c2nc3ccccc3c(=O)o2)c1

>  <measured_endpoint>
activity, negative = inhibition

>  <measured_result>
-20.1% [at 11.4 µM] (inactive)

$$$$
>  <compound>
CCCc1nc2ccccc2c(C(=O)OCC(=O)Nc2cccc(S(=O)(=O)N3CCOCC3)c2)c1CC

>  <measured_endpoint>
activity, negative = inhibition

>  <measured_result>
-27.2% [at 2.29 µM] (inactive)

$$$$
>  <compound>
NC(N)=N[C@@H]1C(O)[C@H](N=C(N)N)[C@@H](O)C(O)[C@H]1O (stereo partly drawn)

>  <measured_endpoint>
activity, negative = inhibition

>  <measured_result>
12.2% [at 11.4 µM] (inactive)

$$$$
>  <compound>
CCCCNC(=S)NNC(=O)c1sccc1C

>  <measured_endpoint>
activity, negative = inhibition

>  <measured_result>
1.58% [at 2.29 µM] (inactive)

$$$$
>  <compound>
O=P(O)(CCP(=O)(O)c1ccccc1)c1ccccc1

>  <measured_endpoint>
activity, negative = inhibition

>  <measured_result>
-3.78% [at 11.4 µM] (inactive)

$$$$
>  <compound>
O=[N+]([O-])c1ccc(N2CCOCC2)nc1

>  <measured_endpoint>
activity, negative = inhibition

>  <measured_result>
-4.02% [at 2.29 µM] (inactive)

$$$$
>  <compound>
O=S(=O)(O)c1cc(N=Nc2cccc3ccccc23)c(O)c2ncccc12

>  <measured_endpoint>
activity, negative = inhibition

>  <measured_result>
-5.6% [at 11.4 µM] (inactive)

$$$$
>  <compound>
CN(C)CN1CSC(=S)N(CN(C)C)C1

>  <measured_endpoint>
activity, negative = inhibition

>  <measured_result>
-11.6% [at 11.4 µM] (inactive)

$$$$
>  <compound>
CCOC(=O)C(C)(C)[C@H](O)C(C)C

>  <measured_endpoint>
activity, negative = inhibition

>  <measured_result>
2.08% [at 11.4 µM] (inactive)

$$$$
>  <compound>
NC(=O)c1ccc[n+](CC(=O)OCCC23CC4CC(CC(C4)C2)C3)c1

>  <measured_endpoint>
activity, negative = inhibition

>  <measured_result>
-1.21% [at 2.29 µM] (inactive)

$$$$
>  <compound>
CCOC(=O)c1sc(NC(C)=O)nc1-c1ccccc1

>  <measured_endpoint>
activity, negative = inhibition

>  <measured_result>
-5.57% [at 2.29 µM] (inactive)

$$$$
>  <compound>
N#Cc1c2n(c3c(=S)nc[nH]c13)CCCCC2

>  <measured_endpoint>
activity, negative = inhibition

>  <measured_result>
9.26% [at 2.29 µM] (inactive)

$$$$
>  <compound>
CC(=O)OC[C@@H]1O[C@@H](O/N=C2/C[C@@H](O)[C@@H](O)[C@@H]3[C@@H]4C(=O)N(C[C@@H]5CCCO5)C(=O)[C@H]4CC[C@@H]23)[C@H](OC(C)=O)[C@H](OC(C)=O)[C@@H]1OC(C)=O

>  <measured_endpoint>
activity, negative = inhibition

>  <measured_result>
-14.3% [at 11.4 µM] (inactive)

$$$$
>  <compound>
COC(=O)[C@@H]1[C@@H](O)[C@]2(O)c3ccccc3O[C@]2(c2ccccc2)[C@H]1c1ccccc1

>  <measured_endpoint>
activity, negative = inhibition

>  <measured_result>
-17.3% [at 11.4 µM] (inactive)

$$$$
>  <compound>
O=S(=O)(O)c1cc(O)c2c(O)c(N=Nc3cccc4ccccc34)c(S(=O)(=O)O)cc2c1

>  <measured_endpoint>
activity, negative = inhibition

>  <measured_result>
-11.8% [at 11.4 µM] (inactive)

$$$$
>  <compound>
N#[N+]c1ccc(Nc2ccccc2)cc1

>  <measured_endpoint>
activity, negative = inhibition

>  <measured_result>
-10.9% [at 11.4 µM] (inactive)

$$$$
>  <compound>
COC(=O)C/C=C\[C@@H](C)[C@@H](/C=N\OC[C@@H](O)COCc1ccco1)OC

>  <measured_endpoint>
activity, negative = inhibition

>  <measured_result>
-28.9% [at 11.4 µM] (inactive)

$$$$
